- Experimental Details: Compound was evaluated for volume of distribution (steady state) after treatment with iv dose of 1 mgkg to female cynomolgus monkey
- Assay type: ADME, organism-based
- Parameters: dose 1 mgkg, route intravenous
- Experimental Context: cercopithecidae, in vivo, 1 mg/kg, read-out: Vss
Observed Property: Vd (L/kg)
Give bare numbers, in L/kg.

Vd measured on "COc1ccc(C(=O)/C(Cc2cc(OC)c(OC)c(OC)c2)=C(\C(=O)[O-])c2ccc3nsnc3c2)cc1F.[Na+]" = 0.1

###

- Experimental Details: Compound was evaluated for maximum time to reach Cmax after treatment with oral dose of 2 mgkg to male wistar rats
- Type: ADME, organism-based
- Design: dose 2 mgkg, route oral
- Experimental Context: rat, in vivo, 2 mg/kg
Observed Property: Tmax (min)
One number for each entry, in min.

Tmax measured on "COc1ccc(C(=O)/C(Cc2cc(OC)c(OC)c(OC)c2)=C(\C(=O)[O-])c2ccc3nsnc3c2)cc1F.[Na+]" = 30

Data credit: ChEMBL document CHEMBL1130878
